System: COG-LL-317
protocolDescription: selective drug sensitivity score (sDSS, relative to normal bone marrow) (sDSS (score)); higher = more potent and effective on the cell line relative to normal bone marrow cells;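 note: ALL cell lines in 384-well plates, five doses spanning 10,000-fold, each plate scaled between vehicle and 100 µmol/L benzalkonium chloride controls, sDSS an adapted area-under-curve metric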
statedConditions: 72 h
resultType: selective drug sensitivity score

- compound: "C[C@H](Nc1ncnc2[nH]cnc12)c1cc2ccc(F)cc2nc1-c1ccccn1 [AMG319] (top concentration 1000 nM)"
  selective drug sensitivity score: -1.42
- compound: "C=CC(=O)Nc1cccc(Nc2nc(Nc3ccc(OCCOC)cc3)ncc2F)c1 [Spebrutinib] (top concentration 1000 nM)"
  selective drug sensitivity score: -0.16
- compound: "CC#CC(=O)N1CC[C@@H](n2c(=O)n(-c3ccc(Oc4ccccc4)cc3)c3c(N)ncnc32)C1 [Tirabrutinib] (top concentration 1000 nM)"
  selective drug sensitivity score: 0
- compound: "CC(=O)Nc1ccc(C(=O)Nc2ccccc2N)cc1 [Tacedinaline] (top concentration 1000 nM)"
  selective drug sensitivity score: -0.02
- compound: "CO[C@H]1CC[C@H](N2C(=O)CNc3ncc(-c4ccc(C(C)(C)O)nc4)nc32)CC1 [CC-223] (top concentration 10000 nM)"
  selective drug sensitivity score: -0.48
- compound: "Nc1nc2[nH]cnc2c(=S)[nH]1 [Thioguanine] (top concentration 10000 nM)"
  selective drug sensitivity score: 23

Now look at this one.
May I ask what selective drug sensitivity score has been recorded for CN(C)CC#Cc1ccc(OCCCc2sc(N3CCc4cccc(C(=O)Nc5nc6ccccc6s5)c4C3)nc2C(=O)O)c(F)c1 (top concentration 10000 nM) ? 39.8

###

System: MOLT-16
protocolDescription: selective drug sensitivity score (sDSS, relative to normal bone marrow) (sDSS (score)); higher = more potent and effective on the cell line relative to normal bone marrow cells
statedConditions: 72 h
The reader will find reported selective drug sensitivity score values listed item by item below.
The answer should be written as a number, with no unit following it.

Some solved entries appear below for comparison.
- compound: "CC(=O)c1cnc2ccc(-c3cc(Cl)c(O)c(Cl)c3)nc2c1N[C@H]1CC[C@H](CN(C)C)CC1 [OTS167] (top concentration 1000 nM)"
  testTarget: "MOLT-16"
  selective drug sensitivity score: 2.78
- compound: "O=C1Cc2cc(C(=O)NC3C[C@H]4CC[C@@H](C3)N4S(=O)(=O)CC3CCN(CCCC(F)(F)F)CC3)c(Cl)cc2N1 (stereo partly specified) (top concentration 10000 nM)"
  testTarget: "MOLT-16"
  selective drug sensitivity score: 0
- compound: "O=C(NC[C@H](O)CN1CCc2ccccc2C1)c1cc(NC2COC2)ncn1 (top concentration 10000 nM)"
  testTarget: "MOLT-16"
  selective drug sensitivity score: 1.54
- compound: "C1=N/C2=N/c3ccc(OCCN4CCCC4)c(c3)COC/C=C/COCc3cccc(c3)C(=C1)N2 [Pacritinib] (top concentration 10000 nM)"
  testTarget: "MOLT-16"
  selective drug sensitivity score: -5.6
- compound: "CCC/C=C/C=C/C(=O)O[C@H]1/C(=C/C(=O)OC)C[C@H]2C[C@H]([C@@H](C)O)OC(=O)C[C@H](O)C[C@@H]3C[C@H](OC(C)=O)C(C)(C)[C@](O)(C[C@@H]4C/C(=C/C(=O)OC)C[C@H](/C=C/C(C)(C)[C@]1(O)O2)O4)O3 [Bryostatin_1] (top concentration 100 nM)"
  testTarget: "MOLT-16"
  selective drug sensitivity score: -7.12

Sample C[C@@H]1CN(CC(=O)Nc2ccc3c(c2)Cc2cccc(-c4cc(=O)cc(N5CCOCC5)o4)c2S3)C[C@H](C)O1 (top concentration 25000 nM) — what was its selective drug sensitivity score? 0.32

selective drug sensitivity score lookup needed for COC(=O)C[C@](O)(CCCC(C)(C)O)C(=O)O[C@@H]1C(OC)=C[C@]23CCCN2CCc2cc4c(cc2[C@H]13)OCO4 [Omacetaxine] (top concentration 10000 nM) , thanks. 6.32

Need selective drug sensitivity score, item CN(C)Cc1ccc(S(=O)(=O)n2ccc(/C=C/C(=O)NO)c2)cc1 [Resminostat] (top concentration 10000 nM) 4.54

What value of selective drug sensitivity score has been recorded for this entry: COc1ccc(-c2ccc3ncc4c(c3c2)n(-c2ccc(N3CCNCC3)c(C(F)(F)F)c2)c(=O)n4C)cn1 [NVP-BGT226] (top concentration 1000 nM) 12.2

// selective drug sensitivity score lookup, key: N#Cc1ccc(C(c2ccc(C#N)cc2)n2cncn2)cc1 [Letrozole] (top concentration 10000 nM) -0.04

# lookup: selective drug sensitivity score of COc1ccc(-c2nc(N3CCOCC3)c3sc(CN(C)c4ncc(C(=O)NO)cn4)cc3n2)cn1 [Fimepinostat (CUDC-907)] (top concentration 10000 nM) 8.68

###

Tested on: RPMI-8402
protocolDescription: selective drug sensitivity score (sDSS, relative to normal bone marrow) (sDSS (score)); higher = more potent and effective on the cell line relative to normal bone marrow cells
statedConditions: 72 h
Each entry below carries its reported selective drug sensitivity score.
No unit in the answer, please; the number alone is enough.

// solved cases for selective drug sensitivity score follow
- molecule: "CCN(CC)CCCC(C)Nc1c2ccc(Cl)cc2nc2ccc(OC)cc12 (configuration not stated) [Mepacrine] (top concentration 50000 nM)"
  reportedResult: -7.1
- molecule: "CCCc1cc(C)[nH]c(=O)c1CNC(=O)c1cc(-c2ccnc(N3CCN(C)CC3)c2)cc2c1cnn2C(C)C [GSK343] (top concentration 1000 nM)"
  reportedResult: 0
- molecule: "O=C(Nc1ccc(OC(F)(F)Cl)cc1)c1cnc(N2CC[C@@H](O)C2)c(-c2cc[nH]n2)c1 [Asciminib] (top concentration 1000 nM)"
  reportedResult: -1.98

GET /values?readout=selective drug sensitivity score&item= N#Cc1ccc(C(c2ccc(C#N)cc2)n2cncn2)cc1 [Letrozole] (top concentration 10000 nM) -0.04

What selective drug sensitivity score value was documented for this molecule, CCc1cncnc1N1CCN(Cc2nc3cc(C(F)(F)F)ccc3[nH]2)CC1 (top concentration 10000 nM) ? 5.96

Query: selective drug sensitivity score; subject: Cc1cc(Nc2cc(N3CCN(C)CC3)nc(Sc3ccc(NC(=O)C4CC4)cc3)n2)n[nH]1 [Tozasertib] (top concentration 10000 nM) 4.56

Give the measured selective drug sensitivity score of O=C(/C=C\n1cnc(-c2cc(C(F)(F)F)cc(C(F)(F)F)c2)n1)NNc1ccccn1 [Verdinexor] (top concentration 1000 nM) . 8.34

Look at this molecule and give its reported selective drug sensitivity score. CC[C@@H]1C(=O)N(C)c2cnc(Nc3ccc(C(=O)NC4CCN(C)CC4)cc3OC)nc2N1C1CCCC1 [BI-2536] (top concentration 1000 nM) 22.4

Any idea what selective drug sensitivity score was measured for O=C(NC[C@H](O)CN1CCc2ccccc2C1)c1cc(NC2COC2)ncn1 (top concentration 10000 nM) ? -0.06

Any idea what its selective drug sensitivity score is? The molecule is CCOC(=O)CCNc1cc(N2CCc3ccccc3CC2)nc(-c2ccccn2)n1 [GSK-J4] (top concentration 100000 nM) -8.18

Report selective drug sensitivity score for CC(C)(C)NC(=O)[C@H]1CC[C@H]2[C@@H]3CC[C@H]4NC(=O)C=C[C@]4(C)[C@H]3CC[C@]12C [Finasteride] (top concentration 10000 nM) please. -0.52

I would be grateful if you could share the reported selective drug sensitivity score for CC[C@H](NC(=O)[C@H](C)NC)C(=O)N1C[C@@H](O)C[C@H]1Cc1c(-c2[nH]c3cc(F)ccc3c2C[C@@H]2C[C@H](O)CN2C(=O)[C@H](CC)NC(=O)[C@H](C)NC)[nH]c2cc(F)ccc12 [Birinapant] (top concentration 1000 nM) . -3.2

###

System: ALL-SIL
protocolDescription: selective drug sensitivity score (sDSS, relative to normal bone marrow) (sDSS (score)); higher = more potent and effective on the cell line relative to normal bone marrow cells
statedConditions: 72 h
selective drug sensitivity score overview

- molecule: "CCNC(=O)c1noc(-c2cc(C(C)C)c(O)cc2O)c1-c1ccc(CN2CCOCC2)cc1 [Luminespib] (top concentration 1000 nM)"
  selective drug sensitivity score: -0.1
- molecule: "CC[C@H](C)C(=O)O[C@H]1C[C@@H](C)C=C2C=C[C@H](C)[C@H](CC[C@@H]3C[C@@H](O)CC(=O)O3)[C@H]21 [Lovastatin] (top concentration 10000 nM)"
  selective drug sensitivity score: 0.9

Tell me the measured selective drug sensitivity score of CNC(=O)c1ccc(N2C(=S)N(c3ccc(C#N)c(C(F)(F)F)c3)C(=O)C2(C)C)cc1F [Enzalutamide] (top concentration 10000 nM) , please. -0.82

Can you share its selective drug sensitivity score? I mean this molecule: CNC(=O)c1cc(COc2nnc(Nc3ccc(Cl)cc3)c3ccoc23)ccn1 [Telatinib] (top concentration 10000 nM) 0

Quick one: selective drug sensitivity score of CO[C@H]1C(=O)[C@]2(C)[C@@H](OC)C[C@H]3OC[C@@]3(OC(C)=O)[C@H]2[C@H](OC(=O)c2ccccc2)[C@]2(O)C[C@H](OC(=O)[C@H](O)[C@@H](NC(=O)OC(C)(C)C)c3ccccc3)C(C)=C1C2(C)C [Cabazitaxel] (top concentration 1000 nM) ? 19.3

Consider the molecule shown here: COC(=O)c1ccc2c(c1)[nH]c1ncnc(NCCCN3CCCCC3)c12 [UM729] (top concentration 10000 nM) What is its recorded selective drug sensitivity score? 1.44
